Molecular target: Bound AMPD (wood frog skeletal muscle, control frogs)
Construct: low phosphate form; not purified
Test: AMP deaminase activity, glutamate dehydrogenase-coupled, NADH […] nm
Conditions: as Mg·GTP, 0.5 mM AMP, pH 7.2, 25°C, bound enzyme, allosteric
EXPERIMENTAL_READOUT: pIC50
Quick note: pIC50 values are minus log10 of concentrations in mol/L.

Output pIC50 of Nc1nc2c(ncn2[C@@H]2O[C@H](COP(=O)(O)OP(=O)(O)OP(=O)(O)O)[C@@H](O)[C@H]2O)c(=O)[nH]1 [Mg·GTP]
4.10

* * *

Target: Bound AMPD (wood frog skeletal muscle, frozen frogs)
Construct: high phosphate form (sites not known); not purified
Test: AMP deaminase activity, glutamate dehydrogenase-coupled, NADH […] nm
Details: as Mg·GTP, 0.5 mM AMP, pH 7.2, 25°C, bound enzyme, allosteric
EXPERIMENTAL_READOUT: pIC50
Quick note: pIC50 values are minus log10 of concentrations in mol/L.

Output pIC50 of `Nc1nc2c(ncn2[C@@H]2O[C@H](COP(=O)(O)OP(=O)(O)OP(=O)(O)O)[C@@H](O)[C@H]2O)c(=O)[nH]1`
4.00
